Tested on: Pseudomonas syringae pv. Tomato (Pst)
Settings: 10 mg/L; watered twice; Pst 10^5; 2 weeks after infection
reported_property: % reduction in necrotic spots compared to control (%)
One number for each entry, in %.

Known results for compounds:
{"columns": ["compound", "recorded_number"],
 "data": [
  ["CCOc1c(Cl)cccc1C(=O)[O-].C[N+](C)(C)CCO [choline 2-ethoxy-3-chlorobenzoate]", 24],
  ["CC(=O)Oc1ccccc1C(=O)[O-].C[N+](C)(C)CCO [choline 2-acetoxybenzoate]", 25],
  ["C[N+](C)(C)CCO.O=C([O-])c1c(Br)ccc(Cl)c1O [choline 3-chloro-6-bromosalicylate]", 24]
]}

Provide reported % reduction in necrotic spots compared to control for each item, in the same order as listed.
1. C[N+](C)(C)CCO.O=C([O-])c1cccc(Cl)c1O [choline 3-chlorosalicylate]
2. C[N+](C)(C)CCO.O=C([O-])c1cc(Cl)ccc1O [choline 5-chlorosalicylate]
3. C[N+](C)(C)CCO.O=C([O-])c1c(F)ccc(Cl)c1O [choline 3-chloro-6-fluorosalicylate]

Solution:
1: 65; 2: 28; 3: 19

Provide reported % reduction in necrotic spots compared to control for each item, in the same order as listed.
1. CCOc1ccccc1C(=O)[O-].C[N+](C)(C)CCO [choline 2-ethoxybenzoate]
2. COc1ccccc1C(=O)[O-].C[N+](C)(C)CCO [choline 2-methoxybenzoate]

Solution:
[56, 54]

----------
Tested on: Pseudomonas syringae pv. Tomato (Pst)
Test: Protection of tomato against Pseudomonas syringae pv. Tomato by watering (Example 32)
Format: in vivo
Details: 80 mg/L; watered twice; Pst 10^5; 2 weeks after infection
reported_property: % reduction in necrotic spots compared to control (%)
One number for each entry, in %.

Provide reported % reduction in necrotic spots compared to control for each item, in the same order as listed.
1. C[N+](C)(C)CCO.O=C([O-])c1cccc(Cl)c1O [choline 3-chlorosalicylate]
2. O=C([O-])c1cccc(Cl)c1O.[Na+] [sodium 3-chlorosalicylate]
3. C[N+](C)(C)CCO.O=C([O-])c1cc(Cl)ccc1O [choline 5-chlorosalicylate]

Solution:
92
53
87

Problem: Would you mind telling me what % reduction in necrotic spots compared to control value was observed for O=C([O-])c1cccc(Cl)c1O.[K+] [potassium 3-chlorosalicylate] ?
Solution: 87

----------
Tested on: powdery mildew fungus
Type: in vivo, tomato
Conditions: 80 mg/L, watered twice; 2 weeks after infection
reported_property: % reduction in necrotic spots compared to control (%)
Give bare numbers, in %.

Known results for compounds:
{"columns": ["compound", "assay_target", "recorded_number"],
 "data": [
  ["C[N+](C)(C)CCO.O=C([O-])c1cc(Cl)ccc1O [choline 5-chlorosalicylate]", "powdery mildew fungus", 90],
  ["COc1ccccc1C(=O)[O-].C[N+](C)(C)CCO [choline 2-methoxybenzoate]", "powdery mildew fungus", 44],
  ["C[N+](C)(C)CCO.O=C([O-])c1cccc(Br)c1O [choline 3-bromosalicylate]", "powdery mildew fungus", 72],
  ["C[N+](C)(C)CCO.O=C([O-])c1cc(Br)ccc1O [choline 5-bromosalicylate]", "powdery mildew fungus", 79],
  ["C[N+](C)(C)CCO.O=C([O-])c1cccc(I)c1O [choline 3-iodosalicylate]", "powdery mildew fungus", 69],
  ["CCOc1c(Cl)cccc1C(=O)[O-].C[N+](C)(C)CCO [choline 2-ethoxy-3-chlorobenzoate]", "powdery mildew fungus", 43]
]}

Provide reported % reduction in necrotic spots compared to control for each item, in the same order as listed.
1. O=C([O-])c1cccc(Cl)c1O.[K+] [potassium 3-chlorosalicylate]
2. C[N+](C)(C)CCO.O=C([O-])c1cccc(Cl)c1O [choline 3-chlorosalicylate]

Solution:
1: 84; 2: 95
